test system: ROCK I (AA 6-553) (Homo sapiens, UniProt Q13464)
Sequence (Q13464 6-553, species assumed): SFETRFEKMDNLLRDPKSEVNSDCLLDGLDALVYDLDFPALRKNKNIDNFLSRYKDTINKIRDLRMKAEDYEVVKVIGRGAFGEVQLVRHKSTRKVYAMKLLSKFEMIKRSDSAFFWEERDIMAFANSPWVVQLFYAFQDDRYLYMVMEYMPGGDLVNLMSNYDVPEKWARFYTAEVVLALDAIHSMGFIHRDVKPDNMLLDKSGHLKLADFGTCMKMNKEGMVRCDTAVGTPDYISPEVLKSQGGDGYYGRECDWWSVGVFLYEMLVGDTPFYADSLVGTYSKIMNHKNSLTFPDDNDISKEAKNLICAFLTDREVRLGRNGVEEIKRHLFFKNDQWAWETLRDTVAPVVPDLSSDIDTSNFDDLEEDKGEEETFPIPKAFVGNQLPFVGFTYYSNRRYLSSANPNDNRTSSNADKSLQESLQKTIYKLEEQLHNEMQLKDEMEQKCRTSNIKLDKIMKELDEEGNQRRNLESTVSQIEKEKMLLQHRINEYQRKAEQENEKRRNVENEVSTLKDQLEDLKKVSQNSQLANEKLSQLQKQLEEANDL
measurement kind: Ki

Worked cases, Ki given:
CS(=O)(=O)Nc1cccc(CC(=O)Nc2cc(-c3c[nH]c4ncccc34)cs2)c1 [II-33]: < 500 nM
COc1cccc(CNC(=O)c2csc(-c3c[nH]c4ncccc34)c2)c1 [II-114]: < 500 nM
O=C(Cc1ccccc1)Nc1nc(-c2c[nH]c3ncc(Cl)cc23)cs1 [II-102]: < 500 nM
Nc1ccc(CC(=O)Nc2nc(-c3c[nH]c4ncccc34)cs2)c(Cl)c1 [II-34]: < 500 nM
O=C(Nc1csc(-c2c[nH]c3ncccc23)n1)c1ccccc1 [II-81]: < 500 nM

Tested on ROCK I (AA 6-553) (Homo sapiens, UniProt Q13464), the item O=C(Cc1ccc(F)cc1F)Nc1nnc(-c2c[nH]c3ncccc23)s1 [I-22] showed Ki equal to < 500 nM

Item O=C(Cc1ccccc1)Nc1nc(-c2c[nH]c3nccc(F)c23)cs1 [II-16] was tested on ROCK I (AA 6-553) (Homo sapiens, UniProt Q13464); the reported Ki is < 500 nM

Assay ROCK I (AA 6-553) (Homo sapiens, UniProt Q13464), sample O=C(Cc1cc2c(cc1Cl)OCO2)Nc1nnc(-c2c[nH]c3ncccc23)s1 [II-10] , Ki read: < 500 nM

Summary: O=C(Cc1ccccc1F)N(c1nc(-c2c[nH]c3ncccc23)cs1)C1CC1 [II-44] , ROCK I (AA 6-553) (Homo sapiens, UniProt Q13464), Ki = < 500 nM

// provenance: patent US7514448B2
